Here the recorded PBM binding z-score is given for each entry.
# System: THRa:RXRa (NR concentration 90 nM, RXRa partner concentration 90 nM)
# experiment.description: PBM binding z-score (relative to random genomic background probes); higher = stronger binding; sequences stand for … in GC…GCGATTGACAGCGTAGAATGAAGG

Examples with answers:
record.sequence: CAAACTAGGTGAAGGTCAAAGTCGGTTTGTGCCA
assay.system: THRa:RXRa (NR concentration 90 nM, RXRa partner concentration 90 nM)
PBM binding z-score: 3.14
--
record.sequence: ATCTCTAGGTAAAAGTTCAGTGACTCCCGAGGAT
assay.system: THRa:RXRa (NR concentration 90 nM, RXRa partner concentration 90 nM)
PBM binding z-score: 1.32
--
record.sequence: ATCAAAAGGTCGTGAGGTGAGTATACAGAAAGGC
assay.system: THRa:RXRa (NR concentration 90 nM, RXRa partner concentration 90 nM)
PBM binding z-score: 3.49
--
record.sequence: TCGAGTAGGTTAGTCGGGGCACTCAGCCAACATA
assay.system: THRa:RXRa (NR concentration 90 nM, RXRa partner concentration 90 nM)
PBM binding z-score: 1.35
--
record.sequence: ACTAGCAGGCCAACGGTCACTCAAGATTAGTCCG
assay.system: THRa:RXRa (NR concentration 90 nM, RXRa partner concentration 90 nM)
PBM binding z-score: -0.135

Attention now shifts to the item below.
Q: Output measured PBM binding z-score for this item: "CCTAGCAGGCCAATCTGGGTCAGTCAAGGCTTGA"
Result: 2.97

---

# System: VDR:RXRa (NR concentration 270 nM, RXRa partner concentration 90 nM)
# experiment.description: PBM binding z-score (relative to random genomic background probes); higher = stronger binding; sequences stand for … in GC…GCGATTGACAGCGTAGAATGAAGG
This listing pairs sequences with measured PBM binding z-score.
Reply with the value as a number alone.

Some solved cases for reference:
record.sequence: AGCTCTAGGTAACCAAGTTCAGTGAATGCCGAAC
endpoint.result: 3.88
--
record.sequence: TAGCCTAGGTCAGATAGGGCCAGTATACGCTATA
endpoint.result: 1.11
--
record.sequence: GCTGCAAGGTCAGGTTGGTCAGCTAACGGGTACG
endpoint.result: 2.81
--
record.sequence: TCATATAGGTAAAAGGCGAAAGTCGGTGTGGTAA
endpoint.result: 0.679
--
record.sequence: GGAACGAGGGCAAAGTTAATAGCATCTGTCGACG
endpoint.result: 1.17

Q: Give the reported value of PBM binding z-score for this record: "GCTCGGAGGACAAGGTCATAGCTTTGTCCGTAGA"
Result: 3.33

---

# System: RARg:RXRa (NR concentration 270 nM, RXRa partner concentration 90 nM)
# experiment.description: PBM binding z-score (relative to random genomic background probes); higher = stronger binding; sequences stand for … in GC…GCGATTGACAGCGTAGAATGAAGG
The sequences listed here are annotated with their PBM binding z-score.
Output spec: single numeric token, no unit.

Some sequences with known PBM binding z-score results, for comparison:
record.sequence: AGAATGAGGTTAGGATCAGGGAAACAGAATACAT
PBM binding z-score: 1.15

record.sequence: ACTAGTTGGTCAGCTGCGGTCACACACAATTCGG
PBM binding z-score: 1.23

record.sequence: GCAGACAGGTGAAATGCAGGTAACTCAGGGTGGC
PBM binding z-score: 0.64

record.sequence: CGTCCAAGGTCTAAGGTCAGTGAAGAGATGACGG
PBM binding z-score: 3.47

record.sequence: CCGACTGGGCCAAAGGTTACCATACTCAGTACGA
PBM binding z-score: 2.84

record.sequence: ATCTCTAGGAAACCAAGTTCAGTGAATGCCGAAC
PBM binding z-score: 0.329

record.sequence: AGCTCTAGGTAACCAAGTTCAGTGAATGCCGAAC
PBM binding z-score: 0.159

record.sequence: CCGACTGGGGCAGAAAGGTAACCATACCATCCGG
PBM binding z-score: 0.234

Q: Respond only with PBM binding z-score recorded for "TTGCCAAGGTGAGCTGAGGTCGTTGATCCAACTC"
Result: 1.02

Q: Provide PBM binding z-score value for the following sequence: "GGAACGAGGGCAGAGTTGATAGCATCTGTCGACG"
Result: 0.934

Q: Write down PBM binding z-score measured for item "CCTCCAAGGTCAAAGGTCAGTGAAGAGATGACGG"
Result: 8.61

Q: Identify measured PBM binding z-score corresponding to "AATACAGGTTCATCGTAGGCCAGAGTACGCACAG"
Result: 2.54
